Test system: MS2 coat protein
Assay: apparent KD of MS2 coat protein, switch OFF state (with FMN for OFF switches, without FMN for ON switches); designed switch direction (-1 OFF switch, 1 ON switch): -1; higher = weaker reporter binding
Settings: FMN input: 0 or 200 uM; Eterna round: R93 (includes R88 designs)
Each record's class is read off its apparent KD of MS2 coat protein using these ranges: band A = under 0.04 µM, band B = from 0.04 µM up to 0.08 µM, band C = 0.08 µM and over

Example cases with answers are listed next.
[[record]]
sequenceentry = "ACCCUGCUAGGAUAUACAGCAGGGAUUCGAAAACCCACGAAACAUGAGGAUCACCCAUGUAGAAGGAGUAGGGA [Bimaat]"
answerlabel = "band A"

[[record]]
sequenceentry = "AAGGUACGAGGAUAUACAUAGAUACAGAUACAUGUAGACGUACAUGAGGAUCACCCAUGUAGAAGGCGUAUAUA [AJ 24]"
answerlabel = "band C"

[[record]]
sequenceentry = "GGUUGGCGAGGAUAUACAUGAGGAUCACCCAUGUGAGAGAAAAAAGUGAGAAAGAAAAGUAGAAGGCGCUGACU [salish99-ex3-04]"
answerlabel = "band C"


Lab note: which band did AAAAAGUGAGGAUAUACAUGAGGAUCACCCAUGUGUAUAAAAAAUUACACAAAAGAAUGUAGAAGGCACUAAAA [JL Mayanne Mod Summer] land in?
band C

Lab note: which band did CACGUACAUGAGGAUCACCCAUGUUAGGAUAUGCCGAAAAAAAAAAAAAAAAAAAUCAGCAGAAGGAACGAAAC [Bilbo Confounded 19 - Jieux - Exclusion 1] land in?
band A

Lab note: which band did AAAAAACAUGAGGAUCACCCAUGUAAGGAUAUGCUAGGAAAAAGAAAAAUAAAAACUAGCAGAAGGUAUAUGAA [JL wbt mod 12] land in?
band A

Lab note: which band did AGCUAGUCAGGAUAUACGAACAUGUCAAAAGACGUGAAGGGACAUGAGGAUCACCCAUGUAGAAGGGACUAGCC [salish99-Ex2-17] land in?
band C

Lab note: which band did AAAAAGUGAGGAUAUUCGGAUAGGAAAACGAAAACCUAUCCGAAGAAGGCACAUGAGGAUCACCCAUGUGAGAA [67% Ecls-II - Early G + late G segment 4] land in?
band B
